All figures here come from PubChem BioAssay AID1259407.

Tested on: CCRIS mutagenicity, Ames/micronucleus/aberration tests
Assay: CCRIS mutagenicity studies
Settings: Test System: AMES SALMONELLA TYPHIMURIUM; Strain/Indicator: TA1538; Metabolic Activation: RAT, LIVER, S-9, AROCLOR 1254; Method: STANDARD PLATE
Activity calls are given as the source filed them. How the calls were made is not given here.
Respond only with the outcome that fits, drawn from 1 = active, -1 = inactive

Could you check what this test reported for `Nc1ccccc1[N+](=O)[O-]` ? -1

Could you check what this test reported for `CCCCC/C=C\C/C=C\CCCCCCCC(=O)O` ? -1

Could you check what this test reported for `Nc1ccc(-c2ccc(-c3ccc(N)cc3)cc2)cc1` ? 1

---

Test system: CCRIS mutagenicity, Ames/micronucleus/aberration tests
Assay: CCRIS mutagenicity studies
Conditions: Test System: AMES SALMONELLA TYPHIMURIUM; Strain/Indicator: TA1535; Metabolic Activation: HAMSTER, LIVER, S-9, AROCLOR 1254; Method: PREINCUBATION
The source made the active and inactive calls. How the calls were made is not given here.
reported_property: mutagenic call

O=C1CCC(=O)O1 | inactive; negative
CC1CCC(C(C)CS)CC1S (stereo not drawn) | inactive; negative

---

Tested on: CCRIS mutagenicity, Ames/micronucleus/aberration tests
Assay: CCRIS mutagenicity studies
Conditions: Test System: AMES SALMONELLA TYPHIMURIUM; Strain/Indicator: TA100; Metabolic Activation: NONE; Method: PREINCUBATION
Active and inactive are the calls of the source. The rule behind the calls is not given here.
Respond only with the outcome that fits, drawn from t = active, f = inactive

Check out these entries, answers already filled in.
CC(CC(=O)O)C(=O)O (centres undefined) | f
C=CC(=O)OCCOCCOCCOCCOC(=O)C=C | f

Could you check what this test reported for `CC(=O)Nc1ccc2ncccc2c1` ? f

Could you check what this test reported for `N#CCO` ? f

Could you check what this test reported for `Clc1ccccc1Cl` ? f

Could you check what this test reported for `O[C@@H]1[C@@H]2O[C@@H]2c2c(ccc3cc4c(ccc5ccccc54)nc23)[C@H]1O` ? t

Could you check what this test reported for `Cc1ccc(S(=O)(=O)OC[C@@H]2CO2)cc1` ? t

---

Tested on: CCRIS mutagenicity, Ames/micronucleus/aberration tests
Assay: CCRIS mutagenicity studies
Conditions: Test System: MOUSE LYMPHOMA; Strain/Indicator: L5178Y (TK+/TK-); Metabolic Activation: NONE; Method: SUSPENSION/PLATE
Excerpt: The CCRIS database contains chemical records with carcinogenicity, mutagenicity, tumor promotion, and tumor inhibition test results. It was developed by the National Cancer Institute (NCI). Data are derived from studies cited in primary journals, current awareness tools, NCI reports, and other sources. Test results have been reviewed by experts in carcinogenesis and mutagenesis. CCRIS provides historical information from the years 1985 - 2011. It is no longer updated. […]
Active and inactive are the calls of the source. How the calls were made is not given here.
Respond only with the outcome that fits, drawn from active, inactive

Check out these entries, answers already filled in.
CCCCC/C=C\C/C=C\CCCCCCCC(=O)O | inactive
CCC1(c2ccccc2)C(=O)NC(=O)NC1=O | inactive
C=CCc1ccc(O)cc1 | inactive
O=C[C@H](O)[C@@H](O)[C@H](O)[C@H](O)CO | active
CC1(C)S[C@@H]2[C@H](NC(=O)COc3ccccc3)C(=O)N2[C@H]1C(=O)O | inactive

Could you check what this test reported for `C=CC(=O)OCCC` ? active

Could you check what this test reported for `O=C1c2ccccc2CCc2ccccc21` ? inactive

Could you check what this test reported for `CC(C)C1=CC2=CC[C@@H]3[C@](C)(CCC[C@@]3(C)C(=O)O)[C@H]2CC1` ? active

Could you check what this test reported for `OC[C@H]1O[C@@](CO)(O[C@H]2O[C@H](CO)[C@@H](O)[C@H](O)[C@H]2O)[C@@H](O)[C@@H]1O` ? inactive

Could you check what this test reported for `CN(C)C(=O)Oc1ccc[n+](C)c1` ? inactive

Could you check what this test reported for `CC(C)CCC[C@@H](C)[C@H]1CC[C@H]2[C@@H]3C[C@@H]4O[C@@]45C[C@@H](O)CC[C@]5(C)[C@H]3CC[C@]12C` ? active

Could you check what this test reported for `COc1cc([C@@H]2c3cc4c(cc3[C@@H](O[C@@H]3O[C@@H]5CO[C@@H](c6cccs6)O[C@H]5[C@H](O)[C@H]3O)[C@H]3COC(=O)[C@H]23)OCO4)cc(OC)c1O` ? active
